# Measured Target: LPAR1 (Homo sapiens, UniProt Q92633)
# Construct: host or cells: U2OS
# Sequence (Q92633 whole entry): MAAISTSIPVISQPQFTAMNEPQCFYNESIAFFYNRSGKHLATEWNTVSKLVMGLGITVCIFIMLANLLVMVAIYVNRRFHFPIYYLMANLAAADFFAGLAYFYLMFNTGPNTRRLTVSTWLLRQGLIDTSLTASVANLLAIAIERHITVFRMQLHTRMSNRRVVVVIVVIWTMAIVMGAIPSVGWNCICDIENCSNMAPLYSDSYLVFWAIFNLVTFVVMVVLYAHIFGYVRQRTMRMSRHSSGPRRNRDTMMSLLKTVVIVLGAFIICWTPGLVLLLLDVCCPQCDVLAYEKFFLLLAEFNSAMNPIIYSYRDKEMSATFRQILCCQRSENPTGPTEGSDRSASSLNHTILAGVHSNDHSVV
# Assay Details: LPAR1 FLIPR Assay
# Assay type: cell-based
# Details: U2OS cells stably expressing LPAR1; LPA (EC80); Calcium 6 FLIPR dye
Threshold-based label: IC50 under 40 nM gives 1, IC50 not under 40 nM gives -1.

Previously resolved entries follow.
O=C(O)CCCCN(CCCc1ccccc1)C(=O)c1cc(Cl)cc(Cl)c1 [Example 12] :: -1
COc1cc(C(=O)N(CCCCC(=O)O)CCCc2cccc(F)c2)cc(OC)c1C [Example 33] :: 1
COc1ccc(C2(C(=O)N(CCCCC(=O)O)CCCc3ccccc3)CC(OC)C2)cc1 (centres unmarked) [Example 159] :: -1
COc1cc(C(=O)N(CCCCC(=O)NS(=O)(=O)c2ccccc2)CCCc2ccccc2)cc(OC)c1C [Example 144] :: -1
COc1cc(C(=O)N(CCCc2ccccc2)CC[S+]([O-])CC(=O)O)cc(OC)c1C (centres unmarked) [Example 53] :: -1

For this compound, is IC50 lower than 40 nM? COc1cc(C(=O)N(CCCCC(=O)O)CCCc2ccccc2F)cc(OC)c1C [Example 32] 1

Quick check: does COc1cc(OC)cc(C(=O)N(CCCCC(=O)O)CCCc2cccc(Cl)c2)c1 [Example 91] have IC50 under 40 nM? 1

Criterion: IC50 strictly below 40 nM. Is it met by COc1ccc(C2(C(=O)N(CCCc3ccccc3)CCSCC(=O)O)CC2)cc1 [Example 115] ? 1

Identify whether the compound O=C(O)CCCCN(CCCc1ccccc1)C(=O)c1cccc(OC(F)(F)F)c1 [Example 26] records IC50 below 40 nM. -1

Determine if COc1cc(C(=O)N(CCCCC(=O)NS(=O)(=O)C(F)(F)F)CCCc2ccccc2)cc(OC)c1C [Example 150] shows IC50 strictly lower than 40 nM. -1

Is the reported IC50 for COc1cccc(C2(C(=O)N(CCCCC(=O)O)CCCc3ccccc3)CC2)c1 [Example 82] strictly below 40 nM? -1

----------
# Measured Target: LPAR1 (Homo sapiens)
# Construct: host or cells: U2OS
# Assay Details: LPAR1 Arrestin Assay (arrestin reporter assay)
# Assay type: cell-based
# Details: U2OS cells stably expressing the LPAR1 receptor; 200 nM 18:1 LPA (EC80)
Flag rule - IC50 less than 200 nM flags 1; the remaining entries get -1.

COc1cc(C(=O)N(CCCc2ccccc2)CCOCC(=O)O)cc(OC)c1C [Example 6] :: 1
COc1cc(C(=O)N(CCCc2ccccc2)CCC[C@H](C)C(=O)O)cc(OC)c1C (single isomer, unassigned) [Example 78] :: 1

Below 200 nM on IC50? Entry COc1cc(OC)cc(C(=O)N(CCCCC(=O)O)CCCc2ccccc2F)c1 [Example 134] -1

Lab note: IC50 threshold 200 nM. Does this compound come in strictly under it? COc1ccc(C2(C(=O)N(CCCCC(=O)O)CCCc3ccccc3)CC2)nc1 [Example 63] -1

In the record for COc1cc(C(=O)N(CCCc2ccccc2)CC(=O)NC2(C(=O)O)CC2)cc(OC)c1C [Example 3] , is IC50 less than 200 nM? -1

A record lists COc1cc(C(=O)N(CCCCC(=O)O)CCCc2ccccc2)cc(OC)c1C [Example 4] . Is its IC50 below 200 nM? 1

Is it true that IC50 reported for COc1cc(C(=O)N(CCCCC(=O)O)CCCc2ccc(Cl)o2)cc(OC)c1C [Example 185] is less than 200 nM? -1

Please let me know if COc1cc(C(=O)N(CCCc2ccccc2)CCCC(C)(O)C(=O)O)cc(OC)c1C (stereo not shown) [Example 155] shows IC50 below 200 nM. -1

Below 200 nM on IC50? Entry COc1cc(C(=O)N(CCCCC(=O)O)CCCc2ccco2)cc(OC)c1C [Example 173] -1

Dear reviewer, please state whether COc1cc(C(=O)N(CCCc2ccccc2)CCSCCC(=O)O)cc(OC)c1C [Example 60] has IC50 strictly beneath 200 nM. -1

IC50 under 200 nM? Item: COc1cc(C(=O)N(CCCCC(=O)O)CCCc2ccccc2)cc(OC)n1 [Example 48] -1

Is IC50 strictly under 200 nM for the entry COc1cc(C(=O)N(CCCc2ccccc2)CCOCC(=O)NS(C)(=O)=O)cc(OC)c1C [Example 157] ? 1

Could you please tell me whether IC50 recorded for COc1cc(C(=O)N(CCCCC(=O)O)CCCc2ccccc2)cc(OC)c1C1CC1 [Example 35] is less than 200 nM? 1
